Molecular target: T1, CRBN, Q96SW2;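 note: pooled lentiviral library of zinc finger degron-EGFP fusions in mCherry-positive Jurkat cells, FACS-sorted after compound exposure, with degron abundance counted by next-generation sequencing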
T1 chain: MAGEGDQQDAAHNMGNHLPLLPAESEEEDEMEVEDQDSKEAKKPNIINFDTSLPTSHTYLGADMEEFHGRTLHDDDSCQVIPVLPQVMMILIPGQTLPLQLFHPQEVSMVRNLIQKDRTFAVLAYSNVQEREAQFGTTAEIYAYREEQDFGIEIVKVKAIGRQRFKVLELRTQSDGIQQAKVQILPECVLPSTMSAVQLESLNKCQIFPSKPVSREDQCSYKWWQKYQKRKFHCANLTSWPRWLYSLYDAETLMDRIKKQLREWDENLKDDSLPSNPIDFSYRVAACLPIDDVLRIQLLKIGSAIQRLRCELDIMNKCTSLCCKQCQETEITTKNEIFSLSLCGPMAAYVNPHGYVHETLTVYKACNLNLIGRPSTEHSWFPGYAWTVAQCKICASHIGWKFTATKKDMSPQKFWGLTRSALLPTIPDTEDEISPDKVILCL
Assay: log2 fold change of degron read counts, EGFP-low vs EGFP+ sorted cells (limma voom), compound-induced degradation; higher = more compound-induced degradation of the degron-EGFP fusion; degrons are variants of IKZF1/3 zinc finger 2; compound dose not given here
Details: Jurkat; 18 h; compound: compound 33 (diphenyl IMiD analogue)
Over roughly 8,300 sequences, “log2 fold change of degron read counts, EGFP-low vs EGFP+ sorted cells (limma voom), compound-induced degradation” has its median near -1.1; the highest 2% begin near 3.2. Shown is part of a subset that was picked to be rich in the highest values.
Would you please tag the item yes when its log2 fold change of degron read counts is 1 or above, and no when it is below?

I'd appreciate it if you could say whether FFCEVCGAKFTQKGNLLRHIKL [46F_47F_49E_50V_52G_53A_54K_55F_67L_, Q9UKT9] has log2 fold change of degron read counts at least equal to 1. yes

Reported log2 fold change of degron read counts at or above 1? FQCPVCGAAFTQKGNLLRHIKL [46F_47Q_49P_50V_52G_53A_54A_55F_67L_, Q9UKT9] yes

Assess whether reported log2 fold change of degron read counts for FNCNQCGAKFTQKGNLLRHIKL [46F_47N_49N_50Q_52G_53A_54K_55F_67L_, Q9UKT9] sits at 1 or higher. no

Entry FGCPVCGAAFTQKGNLLRHIKL [46F_47G_49P_50V_52G_53A_54A_55F_67L_, Q9UKT9] : is its log2 fold change of degron read counts no less than 1? yes

Textbook exercise: given the entry FQCPQCGAAFTQKGNLLRHIKL [46F_47Q_49P_50Q_52G_53A_54A_55F_67L_, Q9UKT9] , state whether its log2 fold change of degron read counts is greater than or equal to 1. no

Threshold query (log2 fold change of degron read counts >= 1) on FWCPVCGAAFTQKGNLLRHIKL [46F_47W_49P_50V_52G_53A_54A_55F_67L_, Q9UKT9] yes

Reported log2 fold change of degron read counts at or above 1? FNCEVCGAKFTQKGNLLRHIKL [46F_47N_49E_50V_52G_53A_54K_55F_67L_, Q9UKT9] no

API: above_or_equal(metric=log2 fold change of degron read counts, cutoff=1) for item FWCPVCGARFTQKGNLLRHIKL [46F_47W_49P_50V_52G_53A_54R_55F_67L_, Q9UKT9] yes

Could you please find out whether FYCPQCGAAFTQKGNLLRHIKL [46F_47Y_49P_50Q_52G_53A_54A_55F_67L_, Q9UKT9] has log2 fold change of degron read counts that meets 1 or exceeds it? yes

In plain terms: is recorded log2 fold change of degron read counts at least 1 for FHCPVCGAAFTQKGNLLRHIKL [46F_47H_49P_50V_52G_53A_54A_55F_67L_, Q9UKT9] ? yes

Test whether the sequence FDCPICGRRFTQKGNLLRHIKL [46F_47D_49P_50I_52G_53R_54R_55F_67L_, Q9UKT9] records log2 fold change of degron read counts of 1 or higher. yes

Is log2 fold change of degron read counts for FQCPVCGALFTQKGNLLRHIKL [46F_47Q_49P_50V_52G_53A_54L_55F_67L_, Q9UKT9] at or above 1? yes

Does the reported log2 fold change of degron read counts for FLCPVCGARFTQKGNLLRHIKL [46F_47L_49P_50V_52G_53A_54R_55F_67L_, Q9UKT9] fall at or above the 1 mark? no

log2 fold change of degron read counts >= 1 for FYCEVCGAKFTQKGNLLRHIKL [46F_47Y_49E_50V_52G_53A_54K_55F_67L_, Q9UKT9] ? yes

hey, is log2 fold change of degron read counts for this one >= 1? FTCPVCGARFTQKGNLLRHIKL [46F_47T_49P_50V_52G_53A_54R_55F_67L_, Q9UKT9] yes

Values compiled from the supplement of paper PMC12645437.
